Tested on: NCI-H522 lung
Experiment: NCI-60 one-dose screen, 48 h (100 = growth as untreated, 0 = no growth, -100 = all killed)
Test Conditions: 10 µM unless noted
This is part of a sample that, as a whole, favours compounds with a hit. Of some 83,000 tested, about 20% had one in any assay.
Exam item: assign t to entries whose growth is below 90% and f to entries at or above 90%. Note that a value of exactly 90% receives f.

Compound: CCOC(=N)c1ccc(C(=N)OCC)cc1
Test Target: NCI-H522 lung
Label Class: f

Compound: CCCCCCCCCCCCCCCCC(=O)O
Test Target: NCI-H522 lung
Label Class: f

Compound: COc1ccc(CCl)c(C)c1OC
Test Target: NCI-H522 lung
Label Class: f

Compound: CCOC(=O)c1ccc(N2C(=O)C(Cl)(c3ccccc3)C2c2ccco2)cc1 (stereo not given)
Test Target: NCI-H522 lung
Label Class: t

Compound: CC1(C)CC(=O)NC1=O
Test Target: NCI-H522 lung
Label Class: f

Ask: # strict comparison: is reported growth < 90%? input = CC(C)=NOC(C)C(=O)O (stereo not given)
Result: f

Ask: What about "COc1ccc2oc3c(ccc[n+]3C)c(=O)c2c1" ?
Result: t

Ask: What about "CC(=O)C[n+]1ccccc1Sc1ccc(Cl)cc1" ?
Result: f

----------
Tested on: NCI-H322M lung
Experiment: NCI-60 one-dose screen, 48 h (100 = growth as untreated, 0 = no growth, -100 = all killed)
Test Conditions: 10 µM unless noted
Description: Growth inhibition of the NCI-H322M human Non-Small Cell Lung tumor cell line is measured as a screen for anti-cancer activity. Cells are grown in 96 well plates and exposed to the test compound for 48 hours. Compounds are tested at a single concentration, which is 10^-5 M for most compounds. The reported endpoint is percent growth (GI% or GIPRCNT), where numbers from 0 - 100% represent growth inhibition, and numbers from -100% - 0 represent cell death. […]
This is part of a sample that, as a whole, favours compounds with a hit. Of some 83,000 tested, about 20% had one in any assay.
Readout: growth (%)
Response body: numeric value in %, unit text excluded.

// solved cases for growth follow
Compound: Cc1nc(Nc2ccc(Cl)cc2)c2cnn(-c3ccccc3)c2n1
growth (%): 104
//
Compound: N#CC(=S)Nc1ccc(Cl)c(Cl)c1
growth (%): -3.76
//
Compound: COCCCNC1=C(C#N)C(=O)NC(c2cccs2)S1 (stereo unspecified)
growth (%): 95.4
//
Compound: CCOC(=O)c1ccc(N2C(=O)C(Cl)(c3ccccc3)C2c2ccco2)cc1 (stereo unspecified)
growth (%): 83.8
//
Compound: CCN(CC)C(CC(=O)c1ccccc1)C(=O)c1ccccc1 (stereo unspecified)
growth (%): 107
//
Compound: O=P(O)(O)OC1C(OP(=O)(O)O)C(OP(=O)(O)O)C(OP(=O)(O)O)C(OP(=O)(O)O)C1OP(=O)(O)O.[Cu+2] (stereo unspecified)
growth (%): 106

--- query ---
Ask: Field: growth (NCI-H322M lung). Entry: CC(C)=NOC(C)C(=O)O (stereo unspecified)
Result: 118

----------
Recorded growth, one value per entry.
Tested on: NCI-H23 lung
Experiment: NCI-60 one-dose screen, 48 h (100 = growth as untreated, 0 = no growth, -100 = all killed)
Test Conditions: 10 µM unless noted
This is part of a sample that, as a whole, favours compounds with a hit. Of some 83,000 tested, about 20% had one in any assay.
Response body: numeric value in %, unit text excluded.

// solved cases for growth follow
Compound: C#CCOC(=O)C(N)CS (stereo not drawn)
Unit Name: %
Experimental Value: 109
--
Compound: OCc1cccc(F)c1
Unit Name: %
Experimental Value: 79.6

Ask: I would be grateful if you could share the reported growth for "Cc1nc(Nc2ccc(Cl)cc2)c2cnn(-c3ccccc3)c2n1" .
Result: 97.3

----------
Test system: HOP-92 NSCLC
Experiment: NCI-60 one-dose screen, 48 h
Test Conditions: 10 µM unless noted
This is part of a sample that, as a whole, favours compounds with a hit. Of some 83,000 tested, about 20% had one in any assay. Active and inactive are the calls of the source. The calls were made as follows: active = growth percent below 10; inactive = the rest.
Entry note: the call must match one of True = active, False = inactive

Here's what some known entries look like.
Chemical Structure: N#CC(=S)Nc1ccc(Cl)c(Cl)c1
Label Class: True
//
Chemical Structure: CNc1ccc(O)cc1
Label Class: False
//
Chemical Structure: Nc1nc(=S)c2[nH]cnc2[nH]1
Label Class: True
//
Chemical Structure: CCOC(=O)NC(N)=O
Label Class: False
//
Chemical Structure: c1ccc2c[n+](Cc3ccc4ccccc4n3)ccc2c1
Label Class: False
//
Chemical Structure: O=C(O)c1ccc2c3ccc(C(=O)O)c4c(C(=O)O)ccc(c5ccc(C(=O)O)c1c25)c43
Label Class: False
//
Chemical Structure: COc1ccc(CCNC(=S)NN)cc1OC
Label Class: False
//
Chemical Structure: CCCC(=O)Oc1ccc2ccccc2c1
Label Class: False
//
Chemical Structure: Cc1cccc(Cl)c1N
Label Class: False

Ask: Per the records of this test, what outcome belongs to "CCc1ccc(OC(=O)CCl)cc1" ?
Result: False

----------
System: COLO 205 colon
Experiment: NCI-60 one-dose screen, 48 h (100 = growth as untreated, 0 = no growth, -100 = all killed)
Test Conditions: 10 µM unless noted
About 83,000 compounds went through this panel and 20% of them were active in at least one assay; those are over-represented in the sample as a whole.
Readout: growth (%)
Response body: numeric value in %, unit text excluded.

// solved cases for growth follow
Chemical Structure: COc1ccc2oc3c(ccc[n+]3C)c(=O)c2c1
Experimental Value: 98.6
--
Chemical Structure: CC(C)(C)OC(=O)CC1(O)CCCCC1
Experimental Value: 109
--
Chemical Structure: COC(=O)c1cc(C(=O)OC)cc([N+](=O)[O-])c1
Experimental Value: 101

Ask: Field: growth (COLO 205 colon). Entry: "C=CCN1C(=O)c2ccccc2C1=O"
Result: 98.4

----------
System: OVCAR-5 ovarian
Experiment: NCI-60 one-dose screen, 48 h (100 = growth as untreated, 0 = no growth, -100 = all killed)
Test Conditions: 10 µM unless noted
The panel holds about 83,000 compounds, 20% with a hit somewhere; the sample as a whole holds those more often. The source made the active and inactive calls. How the source made its calls: active means growth percent below 10; inactive means the rest.
Recorded growth, one value per entry.

Molecule: N#Cc1c(N)nc2c(c(-c3ccc(Cl)cc3)nn2-c2ccccc2)c1C#N
growth: 123% [100 µM] (inactive)

Ask: I would be grateful if you could share the reported growth for "NCCSSC/C=C\CSSCCN" .
Result: 121% (inactive)

----------
System: UO-31 renal
Experiment: NCI-60 one-dose screen, 48 h
Test Conditions: 10 µM unless noted
About 83,000 compounds went through this panel and 20% of them were active in at least one assay; those are over-represented in the sample as a whole. Active and inactive are the calls of the source. Rule for the calls: active = growth percent below 10; inactive = the rest.
Entry note: the call must match one of active, inactive

Molecule: Cc1cc(Cl)nc(Nc2ccccc2)n1
Label Class: inactive
--
Molecule: O=C1Cc2ccccc2C(=O)N1
Label Class: inactive
--
Molecule: Nc1ccc(Cl)c(S(=O)(=O)O)c1
Label Class: inactive
--
Molecule: C=CCN1C(=O)c2ccccc2C1=O
Label Class: inactive
--
Molecule: COc1ccc(CCl)c(C)c1OC
Label Class: inactive

Ask: Per the records of this test, what outcome belongs to "O=C1c2cccnc2-c2ncccc21" ?
Result: inactive

Ask: What about "COc1ccc2oc3c(ccc[n+]3C)c(=O)c2c1" ?
Result: inactive

Ask: What about "CCOCCC(=O)O" ?
Result: inactive

Ask: What about "CCOC(=O)CN1CCC(C(=O)OCC)CC1" ?
Result: inactive

Ask: What about "O=[N+]([O-])c1cccc(N=Cc2ccccc2)c1" ?
Result: inactive

Ask: What about CC1CCC(=O)N1c1ccc(N)cc1 (stereo not drawn) ?
Result: inactive

----------
Tested on: COLO 205 colon
Experiment: NCI-60 one-dose screen, 48 h (100 = growth as untreated, 0 = no growth, -100 = all killed)
Test Conditions: 10 µM unless noted
The panel holds about 83,000 compounds, 20% with a hit somewhere; the sample as a whole holds those more often.
Recorded growth, one value per entry.
Response body: numeric value in %, unit text excluded.

Molecule: O=C(c1ccc(Cl)cc1)C1C(c2ccccc2)C1[N+](=O)[O-] (configuration not stated)
Readout: growth
Unit Name: %
Experimental Value: 111

Ask: I would be grateful if you could share the reported growth for "Clc1ccc2sc(-c3ccccc3)nc2c1" .
Result: 115

Ask: What about CCC(C)(O)CCC(C)(O)CC (configuration not stated) ?
Result: 108

Ask: What about "CCCCCCCCCCCCCCCCC(=O)O" ?
Result: 114

Ask: What about "Cn1c(-c2ccccc2)cc(=O)cc1-c1ccccc1" ?
Result: 96.9

Ask: What about "Cc1cc(Cl)nc(Nc2ccccc2)n1" ?
Result: 114

Ask: What about OC1CCCN(Cc2ccccc2)C1 (configuration not stated) ?
Result: 102
